Value source: ChEMBL document CHEMBL3091317

Record form. Attribute: IC50. Fill in for each entry.
# number only, unit nM dropped from output

[ask] Form: Entry = COc1ccc(/C=C2\COc3cc(OCCCCCCNc4c5c(nc6ccccc46)CCCC5)ccc3C2=O)cc1 | System = UniProt P81908 | IC50 = ____
[reply] 33

[ask] Form: Entry = COc1ccc(/C=C2\COc3cc(OCCCCCCCCCNc4c5c(nc6ccccc46)CCCC5)ccc3C2=O)cc1 | System = UniProt P81908 | IC50 = ____
[reply] 30.9

[ask] Form: Entry = COc1cccc(/C=C2\COc3cc(OCCCCCCNc4c5c(nc6ccccc46)CCCC5)ccc3C2=O)c1 | System = UniProt P81908 | IC50 = ____
[reply] 47.1

[ask] Form: Entry = Cc1ccc(/C=C2\COc3cc(OCCCCCCNc4c5c(nc6ccccc46)CCCC5)ccc3C2=O)cc1 | System = UniProt P81908 | IC50 = ____
[reply] 54.6

[ask] Form: Entry = COc1ccc(/C=C2\COc3cc(OCCCCCCNc4c5c(nc6cc(Cl)ccc46)CCCC5)ccc3C2=O)cc1 | System = UniProt P81908 | IC50 = ____
[reply] 25.9

[ask] Form: Entry = COc1ccc(/C=C2\COc3cc(OCCCCCCCCCCNc4c5c(nc6ccccc46)CCCC5)ccc3C2=O)cc1 | System = UniProt P81908 | IC50 = ____
[reply] 6.2

[ask] Form: Entry = COc1ccc(/C=C2\COc3cc(OCCCCCCCCNc4c5c(nc6cc(Cl)ccc46)CCCC5)ccc3C2=O)cc1 | System = UniProt P81908 | IC50 = ____
[reply] 612
